Target: T1, His-tagged ILT4 protein extracellular domain: ILT4-His (human, UniProt Q8N423 22-460)
T1 construct: Expressed in 293 cells; also called human ILT4-His protein
T1 sequence (Q8N423 other isoform, or with tags, fused parts or gaps limits assumed): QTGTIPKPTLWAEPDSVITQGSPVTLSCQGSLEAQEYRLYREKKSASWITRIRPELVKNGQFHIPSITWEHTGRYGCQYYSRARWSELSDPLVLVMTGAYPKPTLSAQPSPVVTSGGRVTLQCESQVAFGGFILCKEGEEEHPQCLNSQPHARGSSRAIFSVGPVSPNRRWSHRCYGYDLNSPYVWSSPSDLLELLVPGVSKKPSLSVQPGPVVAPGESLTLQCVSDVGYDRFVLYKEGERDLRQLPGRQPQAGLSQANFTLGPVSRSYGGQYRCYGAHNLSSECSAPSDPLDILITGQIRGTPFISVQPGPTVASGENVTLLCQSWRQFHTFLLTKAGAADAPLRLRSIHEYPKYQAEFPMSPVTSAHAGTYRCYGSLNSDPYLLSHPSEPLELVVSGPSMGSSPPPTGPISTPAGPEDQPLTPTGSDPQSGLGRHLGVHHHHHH
Assay: ELISA, coated protein 1 µg/mL, antibody 10 µg/mL

{"BINDER": "humanized antibody huP2-C6 (antibody, human IgG1, kappa, L234A L235A, V domains shown, Full chains; also called P2-C6H7L1) VH: EVQLVQSGAEVKKPGASVKVSCKASGYTFTDYYIHWVRQAPGQGLEWMGYIYPDTGYSGYNQKFKGRVTMTVDKSTSTAYMELRSLRSDDTAVYYCTRRGDYSGVHFDYWGQGTTVTVSS VL: DIVLTQSPDSLAVSLGERATINCRASESVNNYGVGFLHWYQQKPGQPPKLLIYRASTLESGIPDRFSGSGSGTDFTLTISSLQAEDVAVYYCQHSYKDPPWTFGGGTKVEIKR", "absorbance at 450 nm": "2.69 absorbance at 450 nm"}
{"BINDER": "humanized antibody huP2-G9 (antibody, human IgG1, kappa, L234A L235A, V domains shown, Full chains; also called P2-G9H1L2) VH: EVQLQESGPGLVKPSQTLSLTCTVSGSSITSGYYWNWIRQHPGKGLEWIGYLSYDGSNNYNPSLKNLVTISRDTSKNQFSLKLSSVTAADTAVYYCAREGAHYSGTLSWFAYWGQGTLVTVSS VL: DIQMTQSPSSLSASVGDRVTITCRASENIYSNLAWYQQKPGKSPKLLVYAATNLADGVPSRFSGSGSGTDYTLTISSLQPEDFATYYCQHFWDTPYTFGGGTKVEIKR", "absorbance at 450 nm": "1.77 absorbance at 450 nm"}
{"BINDER": "fully human-derived antibody P2m (antibody, human IgG1, kappa, L234A L235A, V domains shown, Full chains) VH: QVQLVQSGAEVKKPGSSVKVSCKASGYTFTSYDISWVRQAPGQGLEWMGGIIPIFGTANYAQKFQGRVTITADESTSTAYMELSSLRSEDTAVYYCTAGIFLATAYWGQGTLVTVSS VL: DIQMTQSPSSMSASVGDRVTISCQASQDIQNYLNWYQQRPGQAPKLLIYDASTLETGVPSRFSGSGSGTYFTLTISSLQPEDVATYYCQQYENVPITFGQGTRLEIKR", "absorbance at 450 nm": "1.87 absorbance at 450 nm"}
